system: Panc-1 cell line; assay: Gene expression profile using RTQ-PCR; format: cell-based; settings: Panc1, RTQ-PCR
In this section, each of the compounds is paired with its reported p18 gene expression vs control cells with no drug treatment.
Could you give me the number in log 2 fold ratio? Just the number is fine.

// worked examples, p18 gene expression vs control cells with no drug treatment included
[[record]]
compound = "Nc1ccn([C@@H]2O[C@H](CO)[C@@H](O)C2(F)F)c(=O)n1 [drawing 10]"
measurement_units = "log 2 fold ratio"
experimental_value = 1.06

[[record]]
compound = "CN1CC[C@@H](c2c(O)cc(O)c3c(=O)cc(-c4ccccc4Cl)oc23)[C@@H]1CO.Cl"
measurement_units = "log 2 fold ratio"
experimental_value = "−0.17"

[[record]]
compound = "CN1CC[C@@H](c2c(O)cc(O)c3c(=O)cc(-c4ccc(C(F)(F)F)cc4Cl)oc23)[C@@H]1CO.Cl [drawing 12]"
measurement_units = "log 2 fold ratio"
experimental_value = "−0.12"

[[record]]
compound = "CN1CCC(c2c(O)cc(O)c3c(=O)cc(-c4ccccc4Cl)oc23)C(O)C1 (centres unmarked) [drawing 14]"
measurement_units = "log 2 fold ratio"
experimental_value = "−1.14"


// moving on: another record for p18 gene expression vs control cells with no drug treatment
Quick note, p18 gene expression vs control cells with no drug treatment for CC[C@H](CO)Nc1nc(NCc2ccccc2)c2ncn(C(C)C)c2n1 [drawing 11] landed at 0.56
